Entries annotated with measured protein stability index
B1: KLHL14 (parent)
chain: WLYCYDPVMDVWARKQDMNTKRAI

Variants of: B1
Protocol summary: protein stability index of a GFP-peptide fusion (GPS, HEK-293T) (PSI 1-6); higher = more stable;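 note: lentivirally expressed fusions sorted by FACS into six bins by GFP to DsRed ratio, PSI derived from sequencing read proportions per bin multiplied by bin number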
Experimental setup: c terminus: a fixed tail appended

{"columns": ["Mutation name", "protein stability index"],
 "data": [
  ["D6W", 3.19],
  ["C4Q", 2.31],
  ["M9E", 1.74],
  ["D6A", 3.01],
  ["D6Y", 2.54],
  ["Y3T", 2.36],
  ["W1P", 2.88],
  ["D17S", 2.38],
  ["D10F", 1.54],
  ["L2E", 2.61],
  ["K21A", 1.78],
  ["R14V", 2.62],
  ["V11A", 1.93],
  ["Q16P", 1.85],
  ["Y5L", 2.24],
  ["A23D", 2.22],
  ["K15M", 1.54],
  ["R22K", 2],
  ["L2T", 2.11],
  ["D6G", 2.9],
  ["D6M", 2.33],
  ["M18L", 1.82],
  ["V11M", 1.61],
  ["V11D", 1.98],
  ["K21N", 1.81],
  ["R14C", 1.75],
  ["D10M", 1.59],
  ["Y5D", 2.61],
  ["K21R", 1.83],
  ["Y3R", 1.25],
  ["D6C", 2.14],
  ["N19L", 2.05],
  ["W1G", 2.4],
  ["W12H", 2.04],
  ["Y3H", 2.22],
  ["R14W", 1.85],
  ["K15W", 1.48],
  ["T20L", 2.28],
  ["C4G", 2.58],
  ["T20D", 2.15],
  ["K21C", 2.23],
  ["A23E", 2.33],
  ["Y5G", 2.43],
  ["W1T", 3.09],
  ["L2A", 2.24],
  ["L2K", 2.29]
]}
